Assay: Cytotoxic effect in BV-2 cells, Cell Counting Kit-8 (CCK-8) assay
Type: cell-based
Details: mouse, BV-2 microglia cells
Measured parameter: CC50 at 50 h

INSERT INTO results (compound, result) VALUES
  ('C=C1CC[C@@H]2O[C@@]2(C)C[C@@H](O)C2=C(C(C)(C)O)CC[C@@]2(C)CC1', '> 50 µM'),
  ('C=C1CC[C@H]2O[C@]2(C)C[C@@H](O)[C@H]2[C@](C)(CC1)CC[C@@]2(O)C(=C)C', '> 50 µM'),
  ('CC1=CCC2(C)CCC3=C(C)C(=O)OC(CC(C)CC(=O)C1)C32OO (stereo not drawn) [Compound 4, Clavirolide Z]', '> 50 µM'),
  ('C=C1CC[C@@H]2O[C@@]2(C)C[C@@H](O)[C@@H]2C(C(C)(C)O)=CC[C@@]2(C)CC1', '> 50 µM'),
  ('C=C1CCC=C(C)CC(O)C2C(C)(CC1)CC1OC12C(C)(C)O (stereo not drawn)', '> 50 µM'),
  ('CC1=C2CC[C@@]3(C)CC[C@H](C)CC(=O)C[C@@H](C)C[C@@H](OC1=O)[C@H]23 [Compound 15, clavirolide C]', '> 50 µM'),
  ('CC1=C2CCC3(C)CCC(C)CC(=O)CC(C)CC(OC1=O)C23OO (stereo not drawn) [Compound 2, Clavirolide X]', '> 50 µM'),
  ('C=C1CCC(O)C(C)=CC2OC(C)(C)C3=C2C(C)(CC1)CC3 (stereo not drawn)', '> 50 µM'),
  ('CC1=CC(=O)CC(C)=CC(O)C2C(C(C)(C)OO)=CCC2(C)CC1 (stereo not drawn)', '> 50 µM'),
  ('CC1=C2C(O)CC3(C)CCC(C)CC(=O)CC(C)CC(OC1=O)C23 (stereo not drawn) [Compound 1, Clavirolide W]', '> 50 µM'),
  ('C=C1CCC=C(C)CC(O)C2C(C(C)(C)O)=CCC2(C)CC1 (stereo not drawn) [Compound 13, clavularinlide E]', '> 50 µM'),
  ('C=C1CCC=C(C)CC(O)C2=C(C(C)(C)O)CCC2(C)CC1 (stereo not drawn)', '> 50 µM'),
  ('C=C1CCC2OC2(C)CC(O)C2=C(C(C)(C)O)CCC2(C)CC1 (stereo not drawn)', '> 50 µM'),
  ('CC1=CC(=O)C=C(C)CC2OC(=O)C(C)=C3CCC(C)(CC1)C32 (stereo not drawn) [Compound 3, Clavirolide Y]', '> 50 µM'),
  ('CC1=CC(OO)C2(C)CCC3=C(C)C(=O)OC(CC(C)CC(=O)C1)C32 (stereo not drawn)', '> 50 µM');
